# System: MYB mRNA
# protocol summary: RT-qPCR splicing assay, MYB canonical junction (CJ) and alternative junction (AJ) mRNA
# Type: cell-based, human
# study conditions: Homo sapiens; increase in MYB alternative junction (AJ) mRNA, RT-qPCR; read-out: MYB AJ AC50
Entries and their measured AC50 follow.

- molecule: "Cn1cc2cc(-c3cc(F)c4c(=O)n(C5CCNC6(CC6)C5)ccc4c3)c(O)c(F)c2n1 (stereo not shown) [Compound 420]"
  AC50: "100 to 1000 nM"
- molecule: "Cc1cn2cc(-c3ccc4nc(N5CCNC6(CC6)C5)[nH]c(=O)c4c3)cc(F)c2n1 [Compound 191]"
  AC50: "> 10000 nM"
- molecule: "O=c1c2ccc(-c3cn[nH]c3)cc2cnn1C1CCNCC1 [Compound 261]"
  AC50: "> 10000 nM"

Please examine the following record next.
Q. # AC50 lookup, item CNC12CCC(n3ccc4nc(-c5cc6cn(C)nc6c(C)c5O)ccc4c3=O)(CC1)C2 [Compound 1522]
A. < 100 nM

###

# System: HTT mRNA
# protocol summary: RT-qPCR splicing assay, HTT canonical junction (CJ) and alternative junction (AJ) mRNA
# Format: cell-based, human
# study conditions: Homo sapiens; Table 5 panel; canonical junction qPCR; compound concentration having 50% response in CJ decrease; read-out: HTT IC50 (decrease in CJ mRNA levels)
pIC50: −log10 of the molar value.
Entries and their measured pIC50 follow.

- molecule: "Cc1cn2cc(-c3ccc4c(=O)n(C5CCN(C)CC5)cnc4c3)ncc2n1"
  pIC50: "5.00 to 6.00"

Q. Observed pIC50 on HTT mRNA for Cc1cn2cc(-c3ccc4c(=O)n(C5CCNCC5)ncc4c3)cc(F)c2n1 , please.
A. > 7.00

Q. Observed pIC50 on HTT mRNA for Cc1cc(-c2cc(F)c3c(=O)n(C4CCNC5(CC5)C4)ncc3c2)cc2cn(C)nc12 (stereo not shown) , please.
A. 6.00 to 7.00

Q. Observed pIC50 on HTT mRNA for Cc1cc(-c2cc(F)c3c(=O)n(C4CCNC5(CC5)C4)ccc3c2)cc2cn(C)nc12 (stereo not shown) , please.
A. > 7.00

###

# System: SMN2 mRNA
# protocol summary: RT-qPCR splicing assay, SMN2 canonical junction (CJ) mRNA
# Assay type: cell-based, human
# study conditions: Homo sapiens; Table 5 panel; canonical junction qPCR; compound concentration having 50% response in CJ decrease; read-out: SMN2 IC50 (decrease in CJ mRNA levels)
pIC50: −log10 of the molar value.
Entries and their measured pIC50 follow.

Solved entries:
- compound: "Cc1cn2cc(-c3cc(F)c4c(=O)n(C5CCNC5)cnc4c3)cc(F)c2n1 (stereo not drawn) [Compound 344]"
  pIC50: "> 7.00"
- compound: "Cc1cn2cc(-c3cc(F)c4c(=O)n(C5CCCNCC5)cnc4c3)cc(F)c2n1 (stereo not drawn) [Compound 353]"
  pIC50: "> 7.00"
- compound: "Cc1cn2nc(-c3ccc4c(=O)n(C5CCNCC5)cc(C)c4c3)cc(C)c2n1 [Compound 381]"
  pIC50: "> 7.00"
- compound: "Cc1cc(-c2ccc3c(=O)n(C4CCNCC4)c(C)nc3c2)cc2cn(C)nc12 [Compound 313]"
  pIC50: "6.00 to 7.00"
- compound: "Cc1cn2nc(-c3ccc4c(=O)n(C5CCNCC5)ccc4c3)cc(Cc3nnc[nH]3)c2n1 [Compound 535]"
  pIC50: "> 7.00"

Please examine the following record next.
Q. # pIC50 lookup, item Cc1cn2cc(-c3cc(F)c4c(=O)n(C5CCNC6(CC6)C5)ccc4c3)ncc2n1 (stereo not drawn) [Compound 428]
A. > 7.00
